# reported Quadruplex/duplex ratio; entries follow
- Tested on: h-Tel quadruplex DNA sequence 5'-d[AGGG(TTAGGG)3]-3'
- test.summary: SPR binding to quadruplex DNA
- Set-up: species or system human
- study.conditions: quadruplex vs duplex affinity

Answered examples (5):
Which Quadruplex/duplex ratio is reported for this molecule? C[n+]1c2c3c(cccc3c3ccccc31)Oc1ccccc1-2 [Compound 9]
>15

Same again, this time with CN1c2ccccc2-c2c3c1cccc3c1ccc(NC(=O)C3CC3)cc1[n+]2C [Compound 3]
244,4

COC(=O)c1ccc2c(c1)c1cccc3c1c([n+]2C)-c1ccccc1N3C [Compound 2] ?
21

And CN1c2ccccc2-c2c3c1cccc3c1ccc(NC(=O)CC[S+](C)[O-])cc1[n+]2C (stereo not drawn) [Compound 5] ?
>230

Proceed to CN(C)CC#Cc1ccc2c3cccc4c3c([n+](C)c2c1)-c1ccccc1N4C [Compound 7]
32,6

Continuing:
So what does the record say about Quadruplex/duplex ratio for CC(=O)NCC#Cc1ccc2c3cccc4c3c([n+](C)c2c1)-c1ccccc1N4C [Compound 8] ?
15,8

Then what about the molecule CN1c2ccccc2-c2c3c1cccc3c1ccc(NC(=O)CO)cc1[n+]2C [Compound 6] ?
21

Same for C[n+]1c2c3c(cccc3c3ccccc31)Sc1ccccc1-2 [Compound 10]
>10

Another molecule to look at: CN1c2ccccc2-c2c3c1cccc3c1ccc(CN)cc1[n+]2C [Compound 4]
6,7
